pKi: −log10 of the molar value.
This section presents pKi values reported for Protein kinase C theta type (Homo sapiens, UniProt Q04759) in the literature.

Query :: Record request: pKi value, item CC(C)C(O)[C@@H]1CCCN(c2ccc(F)c(-c3n[nH]c4ncccc34)n2)C1 (stereo partly drawn)
Result :: > 6.30

Query :: Which measured pKi value corresponds to NCCCNc1ncc2[nH]c(=O)n(Cc3c(F)cccc3F)c2n1 ?
Result :: > 7.00

Query :: Give its pKi value. Item: C[C@@H]1CNCCN1c1cccc(-c2n[nH]c3ncccc23)n1
Result :: > 6.30

Query :: Using the record for CC(C)C[C@H]1CN(c2ccc(C(F)(F)F)c(-c3n[nH]c4ncc(F)cc34)n2)CCN1 , report its pKi.
Result :: > 7.30

Query :: Can you look up the measured pKi of NC[C@@H]1CCN(c2cc(C(F)(F)F)cc(-c3n[nH]c4ncccc34)n2)C1 for me?
Result :: > 5.55

Query :: Which measured pKi value corresponds to CC(C)C(C)(O)C1CN(c2nc(-c3n[nH]c4ncccc34)c(F)cc2F)CCN1 (stereo not drawn) ?
Result :: > 9.00

Query :: Look at this molecule and give its reported pKi. NCCCNc1ncc2[nH]c(=O)n(Cc3cccc(Cl)c3Cl)c2n1
Result :: > 7.00

Query :: Param item = NCCCNc1ncc2[nH]c(=O)n(Cc3c(Cl)cccc3Cl)c2n1 ; retrieve measured pKi.
Result :: > 7.00

Query :: Dear colleague, I am looking for the recorded pKi of the following molecule: Cc1n[nH]c2ncnc(-c3cccc(C4(C#N)CC4)c3)c12
Result :: > 7.30

###

Several reports have described Ki for UniProt Q04759; a selection of those results is presented here.

Query :: Notebook entry, UniProt Q04759 assay: Ki of CCNC(=O)CC1CN(c2ccc(C(F)(F)F)c(-c3n[nH]c4ncccc34)n2)CCN1 (stereo not shown) = ?
Result :: > 700 nM

Query :: Provide value of Ki for this record tested with UniProt Q04759: CC1CN(c2ccc(F)c(-c3n[nH]c4ncccc34)n2)CC1CN (stereo not shown)
Result :: < 500 nM

Query :: For the record NCCCNc1ncc2[nH]c(=O)n(Cc3cccc(Cl)c3)c2n1 , what value of Ki is listed for UniProt Q04759?
Result :: < 1000 nM

Query :: Given the entry Fc1ccccc1CNc1ncc2nc(-c3c(Cl)cccc3Cl)n(C[C@@H]3CCNC3)c2n1 , what Ki was observed with UniProt Q04759?
Result :: < 1000 nM

###

// merged dataset of pKi values, system = Protein kinase C theta type (Homo sapiens, UniProt Q04759), multiple refs
pKi: −log10 of the molar value.

Query :: Quick check: pKi of CC(O)C1CN(c2cccc(-c3n[nH]c4ncccc34)n2)CCN1 (centres unmarked) ?
Result :: > 7.30

Query :: Given the entry FC(F)(F)c1ccc(NC2CNC2)nc1-c1n[nH]c2ncccc12 , report its measured pKi.
Result :: < 6.15

Query :: Item CC1(C#N)CCN(c2ccc(C(F)(F)F)c(-c3n[nH]c4ncccc34)n2)CC1 has what recorded pKi?
Result :: < 6.15

Query :: Look at this molecule and give its reported pKi. Fc1ccc(CNc2cc3c(cn2)nc(-c2c(F)cccc2Cl)n3C[C@@H]2CCNC2)cc1Cl
Result :: > 6.00

Query :: pKi for FC(F)(F)c1ccc(NCC2CCNC2)nc1-c1n[nH]c2ncccc12 (centres unmarked) ?
Result :: < 6.15

Query :: Using the record for Clc1cccc(CNc2ncc3nc(-c4c(Cl)cccc4Cl)n(C[C@H]4CCNC4)c3n2)c1 , report its pKi.
Result :: > 6.00

Query :: Bench note: what pKi did CC(C)C(C)(O)C1CN(c2ccc(Cl)c(-c3n[nH]c4ncccc34)n2)CCN1 (centres unmarked) show?
Result :: > 7.30

Query :: Reported pKi, molecule c1cc(-c2n[nH]c3ncccc23)nc(N2CCCNCC2)c1 : ____
Result :: > 7.30
